Data credit: ChEMBL document CHEMBL1134637

In this section we review reported MIC values for a set of molecules.
- Tested on: Vaccinia virus
- MEASUREMENT_PROTOCOL: Minimal inhibitory concentration to reduce virus-induced cytopathicity against VV
- Assay type: functional
- CONDITION_DETAILS: Orthopoxvirus vaccinia
VALUE_TYPE: MIC

> print(dat)
                                 chem.smiles  observed.result
 1  Cc1c(-c2ccccc2)nc2nc3c(ncn3COCCO)c(O)n12      > 200 µg/mL
 2  COc1ccc(OC)c(-c2cn3c(O)c4ncn(COCCO)c4nc3n2)c1       > 16 µg/mL
 3                OCCOCn1cnc2c(O)n3ccnc3nc21        400 µg/mL
 4  O=c1c2ncn(COCCO)c2nc2n(Cc3ccccc3)c(-c3ccccc3)cn12      > 100 µg/mL
 5            CCc1cn2c(O)c3ncn(COCCO)c3nc2n1        240 µg/mL
 6  Cc1ccc(-c2cn3c(O)c4ncn(COC(CO)CO)c4nc3n2)cc1       > 16 µg/mL
 7  COc1cccc(-c2cn3c(O)c4ncn(COCCO)c4nc3n2)c1      > 400 µg/mL
 8  COc1ccc(-c2cn3c(O)c4ncn(COCCO)c4nc3n2)cc1       > 40 µg/mL
 9  O=c1[nH]c(=O)n([C@H]2C[C@H](O)[C@@H](CO)O2)cc1/C=C/Br        9.2 µg/mL
10  OCCOCn1cnc2c(O)n3c(-c4ccc(C(c5ccccc5)c5ccccc5)cc4)c(-c4ccccc4)nc3nc21       > 16 µg/mL
11  OCC(CO)OCn1cnc2c(O)n3cc(-c4ccccc4)nc3nc21       > 90 µg/mL
12              Nc1nc2c(ncn2COCCO)c(=O)[nH]1       > 80 µg/mL
13  OCCOCn1cnc2c(O)n3c(C(c4ccccc4)(c4ccccc4)c4ccccc4)cnc3nc21       > 16 µg/mL
14  CC(=O)OCCOCn1cnc2c(O)n3cc(-c4ccc5ccccc5c4)nc3nc21       > 16 µg/mL
15            OCCOCn1cnc2c(O)n3c(CO)cnc3nc21      > 3.2 µg/mL
16  COc1ccc(-c2cn3c(O)c4ncn(COCCO)c4nc3n2)c(OC)c1         16 µg/mL
17  Cc1nc2nc3c(ncn3COCCO[Si](C)(C)C(C)(C)C)c(O)n2c1C(c1ccccc1)(c1ccccc1)c1ccccc1          2 µg/mL
18   COc1ccccc1-c1cn2c(O)c3ncn(COCCO)c3nc2n1       > 80 µg/mL
19  Cc1c(-c2ccccc2)nc2nc3c(ncn3COC(CO)CO)c(O)n12      > 400 µg/mL
20  O=[N+]([O-])c1ccc(-c2cn3c(O)c4ncn(COCCO)c4nc3n2)cc1       > 16 µg/mL
21     OCCOCn1cnc2c(O)n3cc(-c4ccccc4)nc3nc21      > 100 µg/mL
22  OCCOCn1cnc2c(O)n3c(-c4ccccc4)c(-c4ccccc4)nc3nc21       > 16 µg/mL
